# method: Half life in Sprague-Dawley rat at 10 mg/kg, po or 2 mg/kg, iv
# Type: ADME, organism-based
# measurement_context: in vivo
Parameter half-life: see the listing below.
readout_name: half-life (h)

entry_smiles: COC(=O)N[C@H](C(=O)N1CCC[C@H]1c1ncc(-c2ccc3c(c2)Oc2ccc(-c4cnc([C@@H]5CCCN5C(=O)[C@@H](NC(=O)OC)C(C)C)[nH]4)cc2C3(C)C)[nH]1)C(C)C
recorded_number: 1.6
//
entry_smiles: COC(=O)N[C@H](C(=O)N1CCC[C@H]1c1ncc(-c2ccc3c(c2)Oc2ccc(-c4cnc([C@@H]5CCCN5C(=O)[C@@H](NC(=O)OC)C(C)C)[nH]4)cc2N3C)[nH]1)C(C)C
recorded_number: 1.2
//
entry_smiles: COC(=O)N[C@H](C(=O)N1CCC[C@H]1c1ncc(-c2ccc3cc4cc(-c5cnc([C@@H]6CCCN6C(=O)[C@@H](NC(=O)OC)C(C)C)[nH]5)ccc4cc3c2)[nH]1)C(C)C
recorded_number: 3
